Test system: HT29 colon
Experiment: NCI-60 one-dose screen, 48 h
Conditions: 10 µM unless noted
Compounds without any hit were thinned out: in the full panel of roughly 83,000, 20% have a hit. Active and inactive are the calls of the source. Rule for the calls: active = growth percent below 10; inactive = the rest.
I would appreciate it if you answered using one of these outcomes: active, inactive

[[record]]
compound = "NC(N)=N/N=C/CO"
group_label = "inactive"

[[record]]
compound = "CCCCN(Cc1ccc(C(=O)NO)cc1)C(=O)Nc1ccc(OCCCCCCCCCn2cc(CCCCC(=O)N[C@H](C(=O)N3C[C@H](O)C[C@H]3C(=O)NCc3ccc(-c4scnc4C)cc3)C(C)(C)C)nn2)cc1"
group_label = "inactive"

[[record]]
compound = "CCC(C)NCc1ccccc1 (stereo not given)"
group_label = "inactive"

[[record]]
compound = "Clc1ccc(-c2nnc(-c3ccco3)o2)cc1"
group_label = "inactive"

[[record]]
compound = "Cn1ncc2c(Nc3ccc(Br)cc3)nc(Nc3ccc(Br)cc3)nc21"
group_label = "inactive"

[[record]]
compound = "CN(C)CCn1cc(-c2ccc3c(Nc4ccc(CC(=O)Nc5cccc(F)c5)cc4)ncnc3c2)cn1"
group_label = "active"

[[record]]
compound = "CN(C)c1ccc(/C=C2\\C=C(c3ccccc3)N(CCc3ccccc3)C2=O)cc1"
group_label = "inactive"

[[record]]
compound = "COc1ccc(/C(C)=C(\\c2ccc(Cl)cc2)c2ccc(OCCN(C)C)cc2)cc1F"
group_label = "active"


# outcome recorded in this test, key = CCn1c(Sc2nnc(NC(=O)CCN3CCCC3)s2)nc2c1c(=O)n(C)c(=O)n2C inactive

// return assay outcome for O=C1NCC(=O)N(Cc2ccco2)[C@H]1Cc1ccccc1 inactive

----------
The molecules listed here are annotated with their growth.
Tested on: KM12 colon
Test: NCI-60 one-dose screen, 48 h (100 = growth as untreated, 0 = no growth, -100 = all killed)
Details: 10 µM unless noted
About 83,000 compounds went through this panel and 20% of them were active in at least one assay; those are over-represented in the sample as a whole.
Output spec: scalar in %, unitless text.

These recorded examples may help you get a feel for the data.
[[record]]
molecule = "Cc1cccc(-c2cc(O)c(C(=O)N3CCOCC3)s2)c1"
recorded_number = 25.5

[[record]]
molecule = "COc1ccc(C2CC(c3ccc4ccccc4c3)=NN2c2nc(O)c(C3=c4cc(Cl)ccc4=NC3=O)s2)cc1 (stereo not given)"
recorded_number = -59.3

[[record]]
molecule = "CCCCCOC(=O)c1cccc(NC(=O)CN(CC)CC)c1"
recorded_number = 104

[[record]]
molecule = "Cc1cc2c(F)c(Oc3ncnc(Nc4ccc(N5C[C@@H](C)N[C@@H](C)C5)cc4)c3C#N)cc(F)c2[nH]1"
recorded_number = 11.9

[[record]]
molecule = "CCN(CC)c1ccc(Nc2ccc(CC(=O)c3ccccc3)cc2)cc1"
recorded_number = 74.9

[[record]]
molecule = "c1ccc2c(c1)ncn2-c1nc2ccccc2n2c1nc1ccccc12"
recorded_number = 47.7

[[record]]
molecule = "C[C@@H]1C(=O)N(C[C@H](Cc2ccccc2)NC(=O)OCc2ccccc2)[C@]1(Cc1ccccc1)C(=O)OC(C)(C)C"
recorded_number = 70.3

[[record]]
molecule = "Cc1c(C(=O)O)nnn1-c1nccs1"
recorded_number = 98.8


Item under review: CC12CC(C#N)CCC1O2 (stereo not given) . Reported growth? 113

I have this molecule here, Cc1ccc(S(=O)(=O)Nc2sccc2-c2nc(-c3ccccc3)no2)cc1 , and I need its recorded growth. 90.1

Which growth is listed for CCC(O)(C(c1ccccc1)c1ccccn1)C(c1ccccc1)c1ccccn1 (stereo not given) ? 106

Could you tell me which growth is on file for Cc1c(Cl)cccc1NS(=O)(=O)c1ccccc1 ? 116

Data request, read-out growth, for Cc1nc(Nc2ccc(NC(=S)Nc3ccccc3)cc2)c2ccccc2n1 104

Suppose we examine the molecule N#Cc1c(N)nc2c(nnn2-c2cccc(C(F)(F)F)c2)c1N ; what growth value has been reported? 86.8

Give the measured growth of COC1(CC[C@@H](C)COC2OC(CO)C(O)C(O)C2O)O[C@H]2C[C@H]3[C@@H]4CC=C5C[C@@H](OC6OC(CO)C(OC7OC(C)C(O)C(O)C7O)C(O)C6OC6OC(C)C(O)C(O)C6O)CC[C@]5(C)[C@H]4CC[C@]3(C)[C@H]2[C@@H]1C (stereo not given in full) . -82.2

What does the data say about its growth? Entry: CCCCN1CCN(c2ccc3nc(-c4ccc5nc(-c6cc(OC)c(OC)c(OC)c6)[nH]c5c4)[nH]c3c2)CC1 59.3

Need growth of O=C(NC(=S)Nc1ccc(-c2nc3ccccc3[nH]2)cc1)c1ccc2ccccc2c1 , thanks. 31.3

Given the molecule O=[N+]([O-])c1cccc(/C=C/c2ccccn2)c1 , what is its reported growth? 65.9

Quick one: growth of O=S(=O)(Nc1ccsc1-c1nc(-c2ccccc2)no1)c1cc(Cl)cc(Cl)c1 ? 93.2

Requested field: growth. Item: CCOC(=O)c1c2c(c(C)n1C)-c1nn(Cc3ccc(OC)cc3)cc1CC2 92.4

----------
System: SR leukemia
Assay: NCI-60 one-dose screen, 48 h
Conditions: 10 µM unless noted
The panel holds about 83,000 compounds, 20% with a hit somewhere; the sample as a whole holds those more often. Activity calls are given as the source filed them. Rule for the calls: active = growth percent below 10; inactive = the rest.
Mark one answer only. Choices: active, inactive

Completed entries (count: 5):
[[record]]
compound = "C=C1C(=O)O[C@H]2[C@H]1CC/C(COC(=O)/C=C\\C(=O)NCc1ccc(Cn3c(=O)sn(-c4ccc(Cl)cc4)c3=O)cc1)=C\\CC[C@@]1(C)O[C@@H]21"
group_label = "active"

[[record]]
compound = "O=C(NCCN1CCC(O)CC1)c1cc2c(o1)C(=O)c1ccccc1C2=O"
group_label = "inactive"

[[record]]
compound = "OC(c1cccc(OCc2ccccc2)c1)c1nnc(-c2ccccc2)o1 (centres undefined)"
group_label = "inactive"

[[record]]
compound = "COc1ccc(/C=C2\\COc3ccc(O)cc3C2=O)cc1OC"
group_label = "active"

[[record]]
compound = "COc1cc2c(c(OC)c1OC)C(=O)/C(=C/c1cc(C)c(O)c(C)c1)S2"
group_label = "inactive"


We next turn to a different compound, shown below.
Please share the test call associated with O=C(CCc1nc(-c2cccc(Cl)c2)no1)Nc1ccccn1 . inactive

----------
Tested on: MOLT-4 leukemia
Test: NCI-60 one-dose screen, 48 h (100 = growth as untreated, 0 = no growth, -100 = all killed)
Conditions: 10 µM unless noted
This is part of a sample that, as a whole, favours compounds with a hit. Of some 83,000 tested, about 20% had one in any assay. The source made the active and inactive calls. Rule for the calls: active = growth percent below 10; inactive = the rest.
Measured growth by item

// map COc1ccc(/C(C)=C(\c2ccc(Cl)cc2)c2ccc(OCCN3CCCC3)cc2)cc1F to recorded growth (system: MOLT-4 leukemia) -5.27% (active)

Lab note: need growth with MOLT-4 leukemia for entry COc1cc(/C=C/C(=O)c2cccc(-n3cc(-c4ccccc4)[nH]c3=O)c2)cc(OC)c1OC , please look it up. -12.6% (active)

Lab note: need growth for CCCCCCNCc1cc(C(C)(C)C)cc(CNCCCCCC)c1O on MOLT-4 leukemia, anyone have it? -14.8% (active)

Item: C=C(C)[C@@H]1CC[C@@]2(C(=O)O)CC[C@]3(C)C(CCC4[C@@]5(C)CCC(OS(=O)(=O)c6ccccc6)C(C)(C)C5CC[C@]43C)C12 (stereo partly drawn) Test system: MOLT-4 leukemia Read-out: growth Value: ? 51.7% (inactive)

----------
System: K-562 leukemia
Assay: NCI-60 one-dose screen, 48 h
Details: 10 µM unless noted
The panel holds about 83,000 compounds, 20% with a hit somewhere; the sample as a whole holds those more often. Calls of active or inactive are those of the source. How the source made its calls: active means growth percent below 10; inactive means the rest.
Output constraint: value belongs to 1 for active, -1 for inactive

Solved cases below.
[[record]]
compound = "CCOC(=O)c1c(C)nc2c(c1N)/C(=C/c1ccc(OC)cc1)C(=O)N2Cc1ccc(F)cc1"
group_label = 1

[[record]]
compound = "COc1ccc(NC(=O)c2cccc(-c3cc(=O)c4c(O)c(OC)c(OC)cc4o3)c2)cc1"
group_label = -1


Hi, sorry to bother you, what did the test record for CC1=CC(=O)C(C(C)C)=CC1=Nc1cc(Br)c(O)c(Br)c1 ? 1

----------
Tested on: HCT-116 colon
Experiment: NCI-60 one-dose screen, 48 h
Conditions: 10 µM unless noted
Compounds without any hit were thinned out: in the full panel of roughly 83,000, 20% have a hit. Activity calls are given as the source filed them. How the source made its calls: active means growth percent below 10; inactive means the rest.
Your answer must be one of the following: yes = active, no = inactive

Study these solved cases before continuing.
[[record]]
compound = "C=C1C(=O)O[C@H]2[C@H]1CC/C(COC(=O)/C=C\\C(=O)NCc1ccc(Cn3c(=O)sn(-c4ccc(OC)cc4)c3=O)cc1)=C\\CC[C@@]1(C)O[C@@H]21"
group_label = "yes"

[[record]]
compound = "CCCc1cc(=O)oc2c3c(c4c(c12)OC(C)(C)C=C4)O[C@@H](C)[C@H](C)C3=O"
group_label = "no"

[[record]]
compound = "COc1ccc(NC(=O)c2cccc(-c3cc(=O)c4c(O)c(OC)c(OC)cc4o3)c2)cc1"
group_label = "no"

[[record]]
compound = "CCC(O)(C(c1ccccc1)c1ccccn1)C(c1ccccc1)c1ccccn1 (stereo not drawn)"
group_label = "no"

[[record]]
compound = "COc1cc(C2CC(c3ccc(Nc4nc(Nc5ccc(F)cc5)nc(Nc5ccc(Cl)cc5)n4)cc3)=NN2C(C)=O)cc(OC)c1OC (stereo not drawn)"
group_label = "no"


Given CC(=O)C(C(C)=O)c1nc2sc3cc(Cl)ccc3n2c(=N)c1C#N , state the outcome it received in this test. no

Which outcome was entered for the compound COc1cc(C2C=C(c3cccc(NC(C)=O)c3)Nc3ncnn32)cc(OC)c1OC (stereo not drawn) in this test? no

So what was the verdict on CCOc1ccc(-c2nc3ccc(-c4nc5ccc(N6CCN(C)CC6)cc5[nH]4)cc3[nH]2)cc1OCC in this test? yes
